Assay: Dog pharmacokinetic study (intravenous and oral)
Type: in vivo
Details: plasma, Beagle dogs, oral, 20 mg/kg, solution
readout: AUC (ng·h/mL)

- smiles.notation: "Cc1cnc(Nc2cnn(CC#N)c2)nc1-c1ccc(C(=O)NCC#N)cc1"
  readout: "AUC"
  quantitative.readout: 57.2

* * *

pIC50 for assorted compounds
Biological target: JAK1 (Homo sapiens)
Construct: purchased Carna Biosciences
Sequence (P23458 whole entry): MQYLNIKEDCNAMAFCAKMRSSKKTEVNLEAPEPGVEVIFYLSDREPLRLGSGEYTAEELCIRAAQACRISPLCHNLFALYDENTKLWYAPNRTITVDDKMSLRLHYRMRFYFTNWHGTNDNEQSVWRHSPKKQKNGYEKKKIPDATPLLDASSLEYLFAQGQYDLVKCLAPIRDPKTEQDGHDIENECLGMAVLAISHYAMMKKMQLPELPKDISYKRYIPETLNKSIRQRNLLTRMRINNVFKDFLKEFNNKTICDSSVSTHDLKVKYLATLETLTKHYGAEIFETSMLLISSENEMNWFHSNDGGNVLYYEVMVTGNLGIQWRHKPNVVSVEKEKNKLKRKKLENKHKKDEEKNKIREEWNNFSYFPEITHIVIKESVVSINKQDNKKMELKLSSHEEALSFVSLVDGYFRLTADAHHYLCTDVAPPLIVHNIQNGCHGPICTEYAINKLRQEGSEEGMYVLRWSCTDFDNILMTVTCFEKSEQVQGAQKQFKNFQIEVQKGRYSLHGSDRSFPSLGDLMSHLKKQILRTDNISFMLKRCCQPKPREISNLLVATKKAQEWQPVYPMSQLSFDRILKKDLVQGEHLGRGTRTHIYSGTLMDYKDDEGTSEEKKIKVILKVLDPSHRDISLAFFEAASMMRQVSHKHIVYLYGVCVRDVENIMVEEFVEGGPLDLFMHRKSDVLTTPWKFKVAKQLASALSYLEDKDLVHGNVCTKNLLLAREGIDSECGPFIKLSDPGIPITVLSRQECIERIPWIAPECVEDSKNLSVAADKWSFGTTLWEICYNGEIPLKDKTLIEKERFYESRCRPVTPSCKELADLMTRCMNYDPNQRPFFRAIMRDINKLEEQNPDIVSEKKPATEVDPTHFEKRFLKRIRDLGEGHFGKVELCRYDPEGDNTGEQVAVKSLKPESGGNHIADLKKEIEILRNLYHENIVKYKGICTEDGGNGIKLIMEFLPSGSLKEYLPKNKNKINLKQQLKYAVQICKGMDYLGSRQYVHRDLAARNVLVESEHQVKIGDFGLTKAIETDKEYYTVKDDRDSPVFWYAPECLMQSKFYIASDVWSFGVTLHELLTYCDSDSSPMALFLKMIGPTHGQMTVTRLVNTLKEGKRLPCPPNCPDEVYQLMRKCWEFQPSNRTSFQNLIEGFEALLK
Test: JAK1 microfluidic kinase assay (Caliper EZ Reader II, FAM labeled peptide substrate)
Format: biochemical
Details: IC50 JAK1 (5 nM) (1 m MATP), JAK1 5 nM, 1 mM ATP
pIC50: −log10 of the molar value.

- smiles.notation: "CCC[C@@H](C#N)NC(=O)c1ccc(-c2nc(Nc3cnn(C4CCN(C)CC4)c3)ncc2C)cc1"
  pIC50: 8.87
- smiles.notation: "CO[C@H]1CC[C@@H](n2cc(Nc3ncc(C)c(-c4ccc(C(=O)N[C@@H](C)C#N)cc4)n3)cn2)CC1"
  pIC50: 7.88
- smiles.notation: "CC[C@@H](C#N)NC(=O)c1ccc(-c2nc(Nc3cnn(C)c3)ncc2C)cc1"
  pIC50: 8.26
- smiles.notation: "CC1(C)CC(n2cc(Nc3ncc(Cl)c(-c4ccc(C(=O)NCC#N)cc4)n3)cn2)CC(C)(C)O1"
  pIC50: 7.94
- smiles.notation: "C[C@@H](C#N)NC(=O)c1ccc(-c2nc(Nc3cnn(C4CC4)c3)ncc2Cl)cc1"
  pIC50: 8.06
- smiles.notation: "Cc1cnc(Nc2cnn(C3CC3)c2)nc1-c1ccc(C(=O)N(C)CC#N)cc1"
  pIC50: 6.20
- smiles.notation: "Cc1cnc(Nc2cnn(C3CCOCC3)c2)nc1-c1ccc(C(=O)N[C@H](C)C#N)cc1"
  pIC50: 7.29
- smiles.notation: "Cc1cnc(Nc2cnn(C)c2)nc1-c1ccc(C(=O)N[C@H](C)C#N)cc1"
  pIC50: 7.12

* * *

Target: TYK2 (Homo sapiens, UniProt P29597)
Construct: purchased Carna Biosciences
Sequence (P29597 whole entry): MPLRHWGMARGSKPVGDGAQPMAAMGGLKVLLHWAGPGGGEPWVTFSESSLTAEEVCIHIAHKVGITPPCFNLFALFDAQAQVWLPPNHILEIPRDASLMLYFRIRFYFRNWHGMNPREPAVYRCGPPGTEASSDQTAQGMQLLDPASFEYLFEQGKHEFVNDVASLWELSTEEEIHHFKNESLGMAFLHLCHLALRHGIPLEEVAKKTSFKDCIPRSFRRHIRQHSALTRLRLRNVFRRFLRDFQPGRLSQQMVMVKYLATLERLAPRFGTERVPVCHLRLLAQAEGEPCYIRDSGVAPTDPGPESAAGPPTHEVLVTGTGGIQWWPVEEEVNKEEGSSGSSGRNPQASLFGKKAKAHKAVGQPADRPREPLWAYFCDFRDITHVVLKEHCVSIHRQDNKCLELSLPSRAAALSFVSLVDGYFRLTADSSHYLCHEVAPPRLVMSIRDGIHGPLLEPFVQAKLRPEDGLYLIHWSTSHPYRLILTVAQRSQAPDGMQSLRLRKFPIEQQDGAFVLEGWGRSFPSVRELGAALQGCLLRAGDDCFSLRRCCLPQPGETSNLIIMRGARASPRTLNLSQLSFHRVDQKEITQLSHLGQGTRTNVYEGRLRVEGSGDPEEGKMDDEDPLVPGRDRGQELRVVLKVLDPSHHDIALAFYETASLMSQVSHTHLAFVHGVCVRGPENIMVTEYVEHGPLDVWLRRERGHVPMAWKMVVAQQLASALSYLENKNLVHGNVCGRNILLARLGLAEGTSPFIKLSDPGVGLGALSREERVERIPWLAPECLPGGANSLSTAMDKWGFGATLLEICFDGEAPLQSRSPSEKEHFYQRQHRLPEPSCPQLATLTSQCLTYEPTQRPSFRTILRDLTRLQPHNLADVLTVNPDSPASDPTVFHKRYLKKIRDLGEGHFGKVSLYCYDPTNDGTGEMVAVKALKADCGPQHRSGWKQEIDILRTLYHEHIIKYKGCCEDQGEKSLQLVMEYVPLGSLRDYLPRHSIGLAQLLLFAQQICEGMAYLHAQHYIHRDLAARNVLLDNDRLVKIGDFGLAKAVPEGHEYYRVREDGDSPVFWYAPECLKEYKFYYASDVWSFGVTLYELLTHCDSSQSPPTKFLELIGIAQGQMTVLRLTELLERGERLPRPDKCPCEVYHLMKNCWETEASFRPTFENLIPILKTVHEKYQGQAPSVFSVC
Assay: TYK2 microfluidic kinase assay (Caliper EZ Reader II, FAM labeled peptide substrate)
Assay type: biochemical
Settings: IC50 TYK2 ([…]) (1 mM ATP), TYK2 […], 1 mM ATP
pIC50: −log10 of the molar value.
The reader will find reported pIC50 values listed item by item below.

- compound: "CCNC(=O)c1ccc(-c2nc(Nc3cnn(C)c3)ncc2C)cc1"
  censoring.operator: "<"
  pIC50: 5.30
- compound: "Cc1cnc(Nc2cnn(CC#N)c2)nc1-c1ccc(C(=O)N[C@H](C)C#N)cc1"
  censoring.operator: "="
  pIC50: 6.52
- compound: "Cc1cnc(Nc2cnn(C3CCN(C(=O)CO)CC3)c2)nc1-c1ccc(C(=O)NCC#N)cc1"
  censoring.operator: "="
  pIC50: 7.30
- compound: "C[C@@H](C#N)NC(=O)c1ccc(-c2nc(Nc3cnn(C4CCN(C(=O)CO)CC4)c3)ncc2Cl)cc1"
  censoring.operator: "="
  pIC50: 7.23
- compound: "Cc1cnc(Nc2cnn(C)c2)nc1-c1ccc(C(=O)NC(C)C)cc1"
  censoring.operator: "<"
  pIC50: 5.30
- compound: "Cc1cnc(Nc2cnn(CCO)c2)nc1-c1ccc(C(=O)N[C@@H](C)C#N)cc1"
  censoring.operator: "="
  pIC50: 7.56
- compound: "Cc1cnc(Nc2cnn(C3CCN(C(=O)C(C)(C)C)CC3)c2)nc1-c1ccc(C(=O)NCC#N)cc1"
  censoring.operator: "="
  pIC50: 7.76
- compound: "CC[C@@H](C#N)NC(=O)c1ccc(-c2nc(Nc3cnn(C4CCN(C)CC4)c3)ncc2Cl)cc1"
  censoring.operator: "="
  pIC50: 8.18
- compound: "CCC[C@@H](C#N)NC(=O)c1ccc(-c2nc(Nc3cnn(CCO)c3)ncc2C)cc1"
  censoring.operator: "="
  pIC50: 7.83
- compound: "Cc1cnc(Nc2cnn(C3CC(C)(C)OC(C)(C)C3)c2)nc1-c1ccc(C(=O)NCC#N)cc1"
  censoring.operator: "="
  pIC50: 8.78
- compound: "C[C@@H](C#N)NC(=O)c1ccc(-c2nc(Nc3cnn(C4CCN(C)CC4)c3)ncc2Cl)cc1"
  censoring.operator: "="
  pIC50: 7.54
- compound: "COC[C@@H](C#N)NC(=O)c1ccc(-c2nc(Nc3cnn(C4CCN(C)CC4)c3)ncc2C)cc1"
  censoring.operator: "="
  pIC50: 7.76
- compound: "C[C@@H](C#N)NC(=O)c1ccc(-c2nc(Nc3cnn(CC#N)c3)ncc2Cl)cc1"
  censoring.operator: "="
  pIC50: 7.37
- compound: "CCC[C@@H](C#N)NC(=O)c1ccc(-c2nc(Nc3cnn(C4CCNCC4)c3)ncc2C)cc1"
  censoring.operator: "="
  pIC50: 8.65
- compound: "Cc1cnc(Nc2cnn(C3CCN(C)CC3)c2)nc1-c1ccc(C(=O)N[C@H](C)C#N)cc1"
  censoring.operator: "="
  pIC50: 6.67
- compound: "Cc1cnc(Nc2cnn(C3CCC(O)CC3)c2)nc1-c1ccc(C(=O)N[C@@H](C)C#N)cc1 (some centres unmarked)"
  censoring.operator: "="
  pIC50: 8.04
- compound: "CC[C@@H](C#N)NC(=O)c1ccc(-c2nc(Nc3cnn(C4CCN(C)CC4)c3)ncc2C)cc1"
  censoring.operator: "="
  pIC50: 8.87

* * *

Test: Rat pharmacokinetic study (intravenous and oral)
Type: in vivo
Settings: male, plasma, Sprague-Dawley rats, intravenous, 1 mg/kg, solution

- smiles.notation: "Cc1cnc(Nc2cnn(C3CC3)c2)nc1-c1ccc(C(=O)NCC#N)cc1"
  Vd: "0.6 L/kg"
- smiles.notation: "Cc1cnc(Nc2cnn(C)c2)nc1-c1ccc(C(=O)NCC(C)(C)C#N)cc1"
  Vd: "0.6 L/kg"
- smiles.notation: "Cc1cnc(Nc2cnn(C3CCOCC3)c2)nc1-c1ccc(C(=O)NCC#N)cc1"
  Vd: "0.6 L/kg"

* * *

Biological target: JAK2V617F (Homo sapiens, UniProt O60674, V617F)
Sequence (O60674 whole entry V617F): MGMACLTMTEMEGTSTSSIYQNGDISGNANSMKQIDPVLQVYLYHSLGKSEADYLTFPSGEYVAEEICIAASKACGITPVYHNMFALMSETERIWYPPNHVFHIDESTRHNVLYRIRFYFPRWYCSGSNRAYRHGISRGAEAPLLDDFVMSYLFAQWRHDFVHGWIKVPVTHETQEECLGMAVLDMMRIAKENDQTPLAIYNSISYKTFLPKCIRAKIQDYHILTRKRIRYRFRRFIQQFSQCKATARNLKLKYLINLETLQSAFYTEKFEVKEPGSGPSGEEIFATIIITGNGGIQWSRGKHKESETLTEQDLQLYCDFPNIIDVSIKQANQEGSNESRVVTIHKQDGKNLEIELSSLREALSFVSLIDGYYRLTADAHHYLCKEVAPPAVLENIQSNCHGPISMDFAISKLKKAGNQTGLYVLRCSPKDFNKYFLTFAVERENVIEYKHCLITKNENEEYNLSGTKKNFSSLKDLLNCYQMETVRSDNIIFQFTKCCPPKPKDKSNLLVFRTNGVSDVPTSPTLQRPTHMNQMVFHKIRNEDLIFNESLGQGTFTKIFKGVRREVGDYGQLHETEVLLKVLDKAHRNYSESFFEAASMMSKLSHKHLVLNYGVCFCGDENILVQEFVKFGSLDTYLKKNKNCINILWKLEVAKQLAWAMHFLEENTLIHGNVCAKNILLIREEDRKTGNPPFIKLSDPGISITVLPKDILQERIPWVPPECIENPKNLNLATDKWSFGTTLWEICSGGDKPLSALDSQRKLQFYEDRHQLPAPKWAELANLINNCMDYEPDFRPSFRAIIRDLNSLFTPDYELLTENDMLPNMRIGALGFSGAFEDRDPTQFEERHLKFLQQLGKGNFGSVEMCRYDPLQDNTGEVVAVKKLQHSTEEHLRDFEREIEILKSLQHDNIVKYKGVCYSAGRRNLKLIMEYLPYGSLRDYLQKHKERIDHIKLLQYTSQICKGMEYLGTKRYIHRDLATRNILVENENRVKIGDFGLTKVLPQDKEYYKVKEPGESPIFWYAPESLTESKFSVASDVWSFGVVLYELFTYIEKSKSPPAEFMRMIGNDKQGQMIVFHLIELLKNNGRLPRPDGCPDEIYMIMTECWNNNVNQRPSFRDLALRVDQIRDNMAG
Experiment: JAK2V617F microfluidic kinase assay (Caliper EZ Reader II, FAM labeled peptide substrate)
Conditions: JAK2V617F 2.5 nM, 1 mM ATP
Let's look at some compounds and their measured IC50.
readout: IC50

- compound: "CCNC(=O)c1ccc(-c2nc(Nc3cnn(C)c3)ncc2C)cc1"
  readout: "IC50"
  result: "> 5000 nM"
- compound: "CO[C@H]1CC[C@@H](n2cc(Nc3ncc(C)c(-c4ccc(C(=O)N[C@@H](C)C#N)cc4)n3)cn2)CC1"
  readout: "IC50"
  result: "34.3 nM"
- compound: "Cc1cnc(Nc2cnn(C3CCOCC3)c2)nc1-c1ccc(C(=O)NCC(F)(F)F)cc1"
  readout: "IC50"
  result: "6.93 nM"
- compound: "CC[C@@H](C#N)NC(=O)c1ccc(-c2nc(Nc3cnn(C4CCN(C)CC4)c3)ncc2Cl)cc1"
  readout: "IC50"
  result: "2.42 nM"
- compound: "Cc1cnc(Nc2cnn(C3CCN(C(=O)C4(O)CC4)CC3)c2)nc1-c1ccc(C(=O)N[C@@H](C)C#N)cc1"
  readout: "IC50"
  result: "0.44 nM"
- compound: "Cc1cnc(Nc2cnn(C3CCN(C(=O)C4(O)CC4)CC3)c2)nc1-c1ccc(C(=O)NCC#N)cc1"
  readout: "IC50"
  result: "4.18 nM"
- compound: "Cc1cnc(Nc2cnn(C3CCOCC3)c2)nc1-c1ccc(C(=O)NCC#N)cc1"
  readout: "IC50"
  result: "31.1 nM"
- compound: "CCn1cc(Nc2ncc(Cl)c(-c3ccc(C(=O)N[C@@H](C)C#N)cc3)n2)cn1"
  readout: "IC50"
  result: "14.1 nM"
- compound: "C[C@@H](C#N)NC(=O)c1ccc(-c2nc(Nc3cnn(C4CC4)c3)ncc2Cl)cc1"
  readout: "IC50"
  result: "31.4 nM"
- compound: "CN1CCC(n2cc(Nc3ncc(Cl)c(-c4ccc(C(=O)NCC#N)cc4)n3)cn2)CC1"
  readout: "IC50"
  result: "5.11 nM"
- compound: "Cc1cnc(Nc2cnn([C@H]3CC[C@@H](C#N)CC3)c2)nc1-c1ccc(C(=O)NCC(F)(F)F)cc1"
  readout: "IC50"
  result: "4.91 nM"
- compound: "Cc1cnc(Nc2cnn(CC#N)c2)nc1-c1ccc(C(=O)N[C@@H](C)C#N)cc1"
  readout: "IC50"
  result: "92.3 nM"
- compound: "Cc1cnc(Nc2cnn(C3CC3)c2)nc1-c1ccc(C(=O)N2CC(C#N)C2)c(F)c1"
  readout: "IC50"
  result: "341 nM"
- compound: "Cc1cnc(Nc2cnn(C3C[C@H]4CC[C@@H](C3)O4)c2)nc1-c1ccc(C(=O)NCC#N)cc1 (stereo partly shown)"
  readout: "IC50"
  result: "21.9 nM"
- compound: "Cc1cnc(Nc2cnn(C3CCN(S(C)(=O)=O)CC3)c2)nc1-c1ccc(C(=O)NCC2(C#N)CC2)cc1"
  readout: "IC50"
  result: "36.7 nM"
- compound: "Cc1cnc(Nc2cnn(CC(F)F)c2)nc1-c1ccc(C(=O)NCC#N)cc1"
  readout: "IC50"
  result: "104 nM"
- compound: "Cc1cnc(Nc2cnn(C)c2)nc1-c1ccc(C(=O)NCC#N)cc1"
  readout: "IC50"
  result: "115 nM"
- compound: "N#CCNC(=O)c1ccc(-c2nc(Nc3cnn(C4CCOCC4)c3)ncc2Cl)cc1"
  readout: "IC50"
  result: "14.1 nM"
- compound: "N#CCNC(=O)c1ccc(-c2nc(Nc3cnn(C4CC4)c3)ncc2Cl)cc1"
  readout: "IC50"
  result: "25.3 nM"
